experimental_protocol: PK study in rats
Assay type: in vivo
measurement_parameters: male, SD, rat, plasma, po, 5 mg/kg
parameter: MRT inf (h)
Give the value in h but do not write h after it.

The compound listed as C[C@@H](c1ccc(-n2cnc3c(N)ncnc32)cc1)N1CCc2nn(C)c(Cc3ccccc3)c2C1=O shows MRT inf equal to 6.82

###

system_under_test: TEL-TRKA fusion (Homo sapiens, UniProt P04629+P41212)
Sequence (P04629 510-781 limits assumed, one chain of several): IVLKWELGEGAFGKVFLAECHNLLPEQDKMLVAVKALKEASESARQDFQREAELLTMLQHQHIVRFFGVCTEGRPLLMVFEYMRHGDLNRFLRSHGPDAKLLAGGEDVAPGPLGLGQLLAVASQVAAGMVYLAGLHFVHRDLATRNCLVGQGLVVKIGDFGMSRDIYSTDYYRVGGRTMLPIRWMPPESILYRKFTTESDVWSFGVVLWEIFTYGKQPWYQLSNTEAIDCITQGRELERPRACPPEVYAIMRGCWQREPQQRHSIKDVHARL
experimental_protocol: Anti-proliferation in engineered Ba/F3 cells dependent on TEL-TRKA
measurement_parameters: read-out: IC50 anti-proliferative effect, TEL-TRKA Ba/F3; 72 h
parameter: pIC50
Kindly note that pIC50 refers to -log10 of the concentration in mol/L and answer with the value alone.

Lookup result for C[C@@H](c1ccc(-n2cnc3c(N)ncnc32)cc1)N1CCc2nn(C)c(Cc3ccccc3)c2C1=O ; measured pIC50: 6.20

###

Tested on: L929
experimental_protocol: Cell viability assay, protection from necroptosis in L929 cells
Format: cell-based, mouse
measurement_parameters: Mus musculus, L929, 16 h, read-out: EC50 L929 T + S
Classify by EC50. Ranges: L (below 2 nM), M (2 nM to below 100 nM), H (100 nM or more)

Example entries begin here.
1. C[C@@H](c1ccc(-n2cnc3c(N)ncnc32)cc1)N1Cc2nn(C)c(Cc3ccccc3)c2C1=O | L
2. CNC(=O)c1ccc2c(cnn2-c2ccc(CNC(=O)c3cc(Cc4ccccc4)n(C)n3)cc2)c1 | H
3. C[C@H](NC(=O)c1nnn(C)c1Cc1ccccc1)c1ccc(-n2cnc3c(N)ncnc32)cc1 | L
4. CCN1CCN(Cc2ccc(NC(=O)Cc3ccc(-n4cnc5cc(C(=O)NC)ccc54)cc3)cc2C(F)(F)F)CC1 | H
5. Cn1ncc(C(=O)NCc2ccc(-n3cnc4c(N)ncnc43)cc2)c1Cc1ccccc1 | M

Please let me know in which category the item C[C@H](NC(=O)c1cnn(C)c1Cc1ccccc1)c1ccc(-n2cnc3c(N)ncnc32)cc1 belongs.
L

###

experimental_protocol: PK study in rats
Assay type: in vivo
measurement_parameters: SD, rat, plasma, po, 5 mg/kg
parameter: Tmax (min)
Write down the numeric answer in min and omit the unit.

Input C[C@@H](c1ccc(-n2cnc3c(N)ncnc32)cc1)N1CCc2nn(C)c(Cc3ccccc3)c2C1=O . Output Tmax: 30

###

experimental_protocol: Metabolic stability in mouse liver microsomes
Type: in vitro ADME
Entries and their half-life

1) CNC(=O)c1ccc2c(c1)ncn2-c1ccc(CNC(=O)c2cnn(C)c2Cc2ccccc2)cc1 [compound 27] | ~40 min

Please examine the following record next.
half-life measured on CNC(=O)c1ccc2c(c1)ncn2-c1ccc(CNC(=O)c2cc(Cc3ccccc3)n(C)n2)cc1 [compound 20] = ~40 min

###

pIC50: −log10 of the molar value.
The following are reported pIC50 results, target or system UniProtKB Q9Y572.
Sequence (Q9Y572 whole entry): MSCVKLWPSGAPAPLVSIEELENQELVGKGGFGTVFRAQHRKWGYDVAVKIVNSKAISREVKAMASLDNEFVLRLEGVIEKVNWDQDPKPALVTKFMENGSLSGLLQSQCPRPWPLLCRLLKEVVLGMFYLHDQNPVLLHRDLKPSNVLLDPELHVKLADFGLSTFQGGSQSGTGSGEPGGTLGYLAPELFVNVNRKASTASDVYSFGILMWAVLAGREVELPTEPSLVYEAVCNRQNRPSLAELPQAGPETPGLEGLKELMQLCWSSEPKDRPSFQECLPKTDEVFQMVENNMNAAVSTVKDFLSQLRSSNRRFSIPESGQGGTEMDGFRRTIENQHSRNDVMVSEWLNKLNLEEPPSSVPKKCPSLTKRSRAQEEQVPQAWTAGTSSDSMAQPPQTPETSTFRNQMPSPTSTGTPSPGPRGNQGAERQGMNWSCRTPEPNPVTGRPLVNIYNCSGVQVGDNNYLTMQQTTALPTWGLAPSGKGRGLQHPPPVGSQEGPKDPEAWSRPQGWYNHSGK

For Cn1ncc(C(=O)NCc2ccc(-n3cnc4c(N)ncnc43)cc2)c1Cc1ccccc1 on UniProtKB Q9Y572, measured pIC50 was < 6.00

Test item C[C@@H](c1ccc(-n2cnc3c(N)ncnc32)cc1)N1CCc2nn(C)c(Cc3ccccc3)c2C1=O ; UniProtKB Q9Y572; reported pIC50 was 6.14

Cn1nnc(C(=O)NCc2ccc(-n3cnc4c(N)ncnc43)cc2)c1Cc1ccccc1 tested on UniProtKB Q9Y572 gave pIC50: < 6.00

pIC50 for UniProtKB Q9Y572 with input C[C@H](NC(=O)c1cnn(C)c1Cc1ccccc1)c1ccc(-n2cnc3c(N)ncnc32)cc1 equals < 6.00

###

experimental_protocol: PK study in mice
Format: in vivo
measurement_parameters: male, ICR, mouse, plasma, po, 10 mg/kg
Respond with YES for half-life values of 1 h and above, NO for values below.

1) C[C@H](NC(=O)c1cnn(C)c1Cc1ccccc1)c1ccc(-n2cnc3c(N)ncnc32)cc1 [compound 54] | NO
2) C[C@@H](c1ccc(-n2cnc3c(N)ncnc32)cc1)N1Cc2nn(C)c(Cc3ccccc3)c2C1=O [compound 63] | YES
3) Cn1nnc(C(=O)NCc2ccc(-n3cnc4c(N)ncnc43)cc2)c1Cc1ccccc1 [compound 49] | YES
4) Cn1ncc(C(=O)NCc2ccc(-n3cnc4c(N)ncnc43)cc2)c1Cc1ccccc1 [compound 39] | YES

Now for another entry.
Check this compound for half-life at or above 1 h: Cn1nc(Cl)c(C(=O)NCc2ccc(-n3cnc4c(N)ncnc43)cc2)c1Cc1ccccc1 [compound 48]
YES

###

experimental_protocol: PK study in mice
Format: in vivo
measurement_parameters: male, ICR, mouse, plasma, po, 10 mg/kg
parameter: AUC(0-inf) (ng·h/mL)
Unit ng·h/mL implied. Number only.

1) Cn1nc(Cl)c(C(=O)NCc2ccc(-n3cnc4c(N)ncnc43)cc2)c1Cc1ccccc1 [compound 48] | 8400
2) Cn1nnc(C(=O)NCc2ccc(-n3cnc4c(N)ncnc43)cc2)c1Cc1ccccc1 [compound 49] | 4330
3) C[C@H](NC(=O)c1cnn(C)c1Cc1ccccc1)c1ccc(-n2cnc3c(N)ncnc32)cc1 [compound 54] | 2480
4) C[C@@H](c1ccc(-n2cnc3c(N)ncnc32)cc1)N1Cc2nn(C)c(Cc3ccccc3)c2C1=O [compound 63] | 1730

Moving on to another compound below.
Cn1ncc(C(=O)NCc2ccc(-n3cnc4c(N)ncnc43)cc2)c1Cc1ccccc1 [compound 39] yielded AUC(0-inf) of 2210

###

experimental_protocol: PK study in mice
Type: in vivo
measurement_parameters: male, ICR, mouse, plasma, po, 5 mg/kg
parameter: MRT inf (h)
Express it in h; write the number only.

The compound listed as C[C@@H](c1ccc(-n2cnc3c(N)ncnc32)cc1)N1CCc2nn(C)c(Cc3ccccc3)c2C1=O shows MRT inf equal to 2.81

###

Test system: FADD−/− Jurkat
experimental_protocol: Cell viability assay, protection from necroptosis in FADD−/− Jurkat cells
Format: cell-based
measurement_parameters: Homo sapiens, 16 h, read-out: EC50 FADD−/− Jurkat TNFα
pEC50: −log10 of the molar value.
Values of pEC50 greater than or equal to 10 map to t; values below map to f.

Reported pEC50 reaches at least 10 for Cn1ncc(C(=O)NCc2ccc(-n3cnc4c(N)ncnc43)cc2)c1Cc1ccccc1 [compound 39] ?
t

Is pEC50 for COc1ccc2c(c1)ncn2-c1ccc(CNC(=O)c2cnn(C)c2Cc2ccccc2)cc1 [compound 34] at or above 10?
t

###

System: FADD−/− Jurkat
experimental_protocol: Cell viability assay, protection from necroptosis in FADD−/− Jurkat cells
Type: cell-based
measurement_parameters: Homo sapiens, 16 h, read-out: EC50 FADD−/− Jurkat TNFα
parameter: EC50 (nM)
Entry rule: numbers only, all in nM.

As a guide, the following entries are already answered.
1. Cn1ncc(C(=O)NCc2ccc(-n3cnc4cc(C(=O)NCCN5CCOCC5)ccc43)cc2)c1Cc1ccccc1 | 0.5
2. Nc1ncnc2c1ncn2-c1ccc(CN2CCc3cn(Cc4ccccc4)nc3C2=O)cc1 | 0.3

// sample Cn1ncc(C(=O)NCc2ccc(-n3ccc4c(N)ncnc43)cc2)c1Cc1ccccc1 , its EC50 was 4.2

###

compounds and their reported EC50
Test system: FADD−/− Jurkat
experimental_protocol: Cell viability assay, protection from necroptosis in FADD−/− Jurkat cells
Format: cell-based
measurement_parameters: Homo sapiens, 16 h, read-out: EC50 FADD−/− Jurkat TNFα
Provide the reading as a plain figure in µM.

1) CN(C)CCNC(=O)c1ccc2c(c1)ncn2-c1ccc(CNC(=O)c2cnn(C)c2Cc2ccccc2)cc1 [compound 30] | 0.053
2) Cn1nc(Cl)c(C(=O)NCc2ccc(-n3cnc4c(N)ncnc43)cc2)c1Cc1ccccc1 [compound 48] | 0.0002

EC50 for CNC(=O)c1ccc2c(c1)ncn2-c1ccc(CNC(=O)c2noc(Cc3ccccc3)n2)cc1 [compound 16] is 0.024

###

experimental_protocol: PK study in mice
Format: in vivo
measurement_parameters: male, ICR, mouse, plasma, po, 10 mg/kg
parameter: Cmax (ng/mL)
The answer is to be given in ng/mL; state only the numeric part.

Take a look at these entries with their results.
1. Cn1ncc(C(=O)NCc2ccc(-n3cnc4c(N)ncnc43)cc2)c1Cc1ccccc1 | 1340
2. Cn1nc(Cl)c(C(=O)NCc2ccc(-n3cnc4c(N)ncnc43)cc2)c1Cc1ccccc1 | 3050
3. C[C@H](NC(=O)c1cnn(C)c1Cc1ccccc1)c1ccc(-n2cnc3c(N)ncnc32)cc1 | 1200
4. C[C@@H](c1ccc(-n2cnc3c(N)ncnc32)cc1)N1Cc2nn(C)c(Cc3ccccc3)c2C1=O | 714

Form field Cmax, entry Cn1nnc(C(=O)NCc2ccc(-n3cnc4c(N)ncnc43)cc2)c1Cc1ccccc1 : 1220

###

Test system: FADD−/− Jurkat
experimental_protocol: Cell viability assay, protection from necroptosis in FADD−/− Jurkat cells
Format: cell-based
measurement_parameters: Homo sapiens, 16 h, read-out: EC50 FADD−/− Jurkat TNFα
parameter: EC50 (nM)
// note: answer is a bare numeric in nM

1. CNC(=O)c1ccc2c(c1)ncn2-c1ccc(CNC(=O)c2ncc(Cc3ccccc3)o2)cc1 | 70
2. Cn1ncc(C(=O)NCc2ccc(-n3cnc4c(N)nccc43)cc2)c1Cc1ccccc1 | 0.3
3. Cn1nc(C(=O)NCc2ccc(-n3ccc4c(N)ncnc43)cc2)cc1Cc1ccccc1 | 137
4. CCn1nc(C(=O)NCc2ccc(-n3cnc4cc(C(=O)NC)ccc43)cc2)cc1Cc1ccccc1 | 5.9
5. Cn1ncc(C(=O)NC(C)(C)c2ccc(-n3cnc4c(N)ncnc43)cc2)c1Cc1ccccc1 | 7.5

Record CNC(=O)c1ccc2c(c1)ncn2-c1ccc(CNC(=O)c2cc(Cc3ccccc3)n(C)n2)cc1 , field EC50: 5.1
